Target: T1, GST-PHD1 (V291-K347) of KDM5A (human, UniProt P29375 291-347)
T1 construct: PHD1 domain of histone demethylase KDM5A, human, residues V291-K347; Cloned into pET41a; the vector may add further tags (surmise); also called V291-K347 PHD1; PHD1_(KDM5A); source: E. coli BL21(DE3), purified (Glutathione Sepharose 4B, Superdex 75 SEC); not shown: GST, N-terminal, kept
T1 sequence (looked up): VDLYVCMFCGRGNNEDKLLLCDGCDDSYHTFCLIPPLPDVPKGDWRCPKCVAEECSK
Assay: fluorescence polarisation; competition-based FP: 2 µM GST-PHD1 with 10 nM C-terminal fluorescently labeled H3 peptide and different concentrations of unlabeled competitor peptide
Conditions: both partners purified
pKd: −log10 of the molar value. Where no end group is shown, it is not given here. Me3 = trimethyl-lysine
ASSAY METRIC: pKd

A = ARTAQTARKS (peptide, UniProt P68431 2-11, looked up, histone H3 N-terminal tail, 10mer Ala1-Ser10 with K4A) [H3K4A 10mer peptide]
B = ARTK(Me3)QTARKS (peptide, UniProt P68431 2-11, looked up, histone H3 N-terminal tail, 10mer Ala1-Ser10; also called tri-methylated H3K4 peptide) [H3K4me3 10mer peptide]
Task item: I'm curious, which of these has a smaller pKd number: A or B ? Select an item and report its label.
Reply: B
